systemName: human D4.4 receptor (Homo sapiens, UniProt P21917)
Sequence (P21917 whole entry): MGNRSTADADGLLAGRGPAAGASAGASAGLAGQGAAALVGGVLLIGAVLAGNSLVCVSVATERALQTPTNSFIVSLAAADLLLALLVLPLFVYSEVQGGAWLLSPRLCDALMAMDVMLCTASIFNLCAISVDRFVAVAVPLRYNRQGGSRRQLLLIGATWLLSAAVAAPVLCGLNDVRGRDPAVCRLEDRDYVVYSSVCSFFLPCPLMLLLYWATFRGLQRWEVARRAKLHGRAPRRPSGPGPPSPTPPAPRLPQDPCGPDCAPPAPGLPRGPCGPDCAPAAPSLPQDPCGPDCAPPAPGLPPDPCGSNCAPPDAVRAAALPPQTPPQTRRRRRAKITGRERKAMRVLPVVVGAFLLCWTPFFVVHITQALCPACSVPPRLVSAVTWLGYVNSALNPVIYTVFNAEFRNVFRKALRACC
protocolSummary: biochemical
Type: binding
conditionDescription: read-out: D4.4 [3H]YM 09151-2 Ki (nM) ± SEM
outcomeMeasure: Ki (nM)
Kindly answer with a numeric value in nM, unit omitted.

input: Any idea what Ki was measured for CCN(CC)C(=O)[C@@H]1C=C2c3cccc4[nH]cc(c34)C[C@H]2N(C)C1 [LSD, lysergic acid diethylamide] ?
output: 330

====

systemName: recombinant human 5-HT1A receptor (Homo sapiens, UniProt P08908)
Sequence (P08908 whole entry): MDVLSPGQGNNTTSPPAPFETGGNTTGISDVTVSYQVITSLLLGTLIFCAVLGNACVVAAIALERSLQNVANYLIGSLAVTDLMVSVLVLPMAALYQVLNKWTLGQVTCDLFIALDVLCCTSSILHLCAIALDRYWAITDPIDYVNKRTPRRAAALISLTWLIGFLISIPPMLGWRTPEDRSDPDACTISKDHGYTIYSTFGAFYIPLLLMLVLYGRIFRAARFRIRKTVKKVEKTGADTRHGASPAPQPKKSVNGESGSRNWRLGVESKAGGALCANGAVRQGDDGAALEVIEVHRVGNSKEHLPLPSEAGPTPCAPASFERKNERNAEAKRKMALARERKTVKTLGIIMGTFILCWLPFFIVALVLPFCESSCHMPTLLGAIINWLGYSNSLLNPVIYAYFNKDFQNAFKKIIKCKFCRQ
protocolSummary: [3H]8-OH-DPAT binding to HEK-h5-HT1A cell membranes
outcomeMeasure: pKi
Answer as the number alone; pKi is minus log10 of concentration in mol/L.

input: Need pKi, item COc1cc(CC(C)N)c(OC)cc1C (centres unmarked)
output: 4.85
